Recorded values, source patent US8598357B2.

Target: 5-HT2A receptor (Homo sapiens (Human))
Assay: Radioligand binding assay ([3H]-ketanserin) on membranes of HEK293 EBNA cells expressing human 5-HT2A receptor
Settings: read-out: 5HT2A Ki
pKi: −log10 of the molar value.
The entries below are paired with their reported pKi.
REPORTED ENDPOINT: pKi

                              sample_smiles                      measurement_target  result
0  O=C(N[C@H]1CC[C@H](CCN2CCC(c3cccc4c3OCO4)CC2)CC1)C1(O)CCCCC1  5-HT2A receptor (Homo sapiens (Human))    8.41
1  CC(C)C(=O)N[C@H]1CC[C@H](CCN2CCC(c3cccc4c3OCO4)CC2)CC1  5-HT2A receptor (Homo sapiens (Human))    7.77
2  O=C(C[C@@H]1CCCO1)N[C@H]1CC[C@H](CCN2CCC(c3cccc4c3OCO4)CC2)CC1  5-HT2A receptor (Homo sapiens (Human))    7.47
3  O=C(CC1(O)CCC1)N[C@H]1CC[C@H](CCN2CCC(c3cccc4c3OCO4)CC2)CC1  5-HT2A receptor (Homo sapiens (Human))    7.57

* * *

Molecular target: D2 receptor (Homo sapiens (Human), UniProt P14416)
Sequence (P14416 whole entry): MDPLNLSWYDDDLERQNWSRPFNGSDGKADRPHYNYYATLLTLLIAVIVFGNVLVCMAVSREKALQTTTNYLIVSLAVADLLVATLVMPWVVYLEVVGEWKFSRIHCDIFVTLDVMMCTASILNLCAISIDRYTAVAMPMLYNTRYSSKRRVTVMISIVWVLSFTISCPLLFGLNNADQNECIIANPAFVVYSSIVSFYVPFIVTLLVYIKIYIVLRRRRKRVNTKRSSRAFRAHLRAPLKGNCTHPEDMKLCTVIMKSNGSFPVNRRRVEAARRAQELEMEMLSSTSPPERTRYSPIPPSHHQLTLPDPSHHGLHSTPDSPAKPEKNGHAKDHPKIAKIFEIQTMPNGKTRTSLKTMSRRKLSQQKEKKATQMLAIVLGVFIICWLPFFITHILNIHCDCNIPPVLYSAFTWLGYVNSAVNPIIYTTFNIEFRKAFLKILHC
Assay: Radioligand binding assay ([3H]-spiperone) on membranes of HEK293 EBNA cells expressing human D2 receptor
Conditions: human receptor in HEK293 EBNA cells; 0.7 nM [3H]-spiperone
Hi! Just check whether Ki is below 300 nM. Below gives TRUE, equal or above gives FALSE.

>>> print(df.to_string())
                                   compound  group_label
0  CC(C)C(=O)N[C@H]1CC[C@H](CCN2CCC(c3cccc4c3OCO4)CC2)CC1 [Example 23]        FALSE
1  O=C(CC1COC1)N[C@H]1CC[C@H](CCN2CCC(c3cccc4c3OCO4)CC2)CC1 [Example 29]         TRUE
2  O=C(N[C@H]1CC[C@H](CCN2CCC(c3cccc4c3OCO4)CC2)CC1)c1ccc(N2CCOCC2)cc1 [Example 56]        FALSE
3  CC(=O)N[C@H]1CC[C@H](CCN2CCC(c3cccc4c3OCO4)CC2)CC1 [Example 1]         TRUE
4  CO[C@@H](C)C(=O)N[C@H]1CC[C@H](CCN2CCC(c3cccc4c3OCO4)CC2)CC1 [Example 33]        FALSE
5  CN(C)S(=O)(=O)N[C@H]1CC[C@H](CCN2CCC(c3cccc4c3OCO4)CC2)CC1 [Example 78]         TRUE
6  O=C(N[C@H]1CC[C@H](CCN2CCC(c3cccc4c3OCO4)CC2)CC1)C(O)C(F)(F)F (stereo partly drawn) [Example 12]         TRUE
7  COC1(C(=O)N[C@H]2CC[C@H](CCN3CCC(c4cccc5c4OCO5)CC3)CC2)CCCCC1 [Example 67]         TRUE
8  COCC(=O)N[C@H]1CC[C@H](CCN2CCC(c3cccc4c3OCO4)CC2)CC1 [Example 13]        FALSE

* * *

Target: 5-HT2A receptor (Homo sapiens (Human))
Test: Radioligand binding assay ([3H]-ketanserin) on membranes of HEK293 EBNA cells expressing human 5-HT2A receptor
Conditions: read-out: 5HT2A Ki
Hi! Just check whether Ki is below 20 nM. Below gives True, equal or above gives False.

>>> print(df.to_string())
                                   compound                      measurement_target  group_label
0  O=S(=O)(N[C@H]1CC[C@H](CCN2CCC(c3cccc4c3OCO4)CC2)CC1)N1CCOCC1 [Example 79]  5-HT2A receptor (Homo sapiens (Human))        False
1  O=S(=O)(N[C@H]1CC[C@H](CCN2CCC(c3cccc4c3OCO4)CC2)CC1)c1ccc(F)cc1 [Example 71]  5-HT2A receptor (Homo sapiens (Human))        False
2  CCC(C)C(=O)N[C@H]1CC[C@H](CCN2CCC(c3cccc4c3OCO4)CC2)CC1 (stereo partly shown) [Example 51]  5-HT2A receptor (Homo sapiens (Human))        False
3  O=C(N[C@H]1CC[C@H](CCN2CCC(c3cccc4c3OCO4)CC2)CC1)c1ccc(F)cc1 [Example 37]  5-HT2A receptor (Homo sapiens (Human))         True
4  O=C(N[C@H]1CC[C@H](CCN2CCC(c3cccc4c3OCO4)CC2)CC1)C(O)C(F)(F)F (stereo partly shown) [Example 12]  5-HT2A receptor (Homo sapiens (Human))         True
5  COC(=O)N[C@H]1CC[C@H](CCN2CCC(c3cccc4c3OCO4)CC2)CC1 [Example 18]  5-HT2A receptor (Homo sapiens (Human))        False
6  O=C(CC1CCCO1)N[C@H]1CC[C@H](CCN2CCC(c3cccc4c3OCO4)CC2)CC1 (stereo partly shown) [Example 6]  5-HT2A receptor (Homo sapiens (Human))        False

* * *

The entries below are paired with their reported Ki.
Target: 5-HT2A receptor (Homo sapiens (Human))
Experiment: Radioligand binding assay ([3H]-ketanserin) on membranes of HEK293 EBNA cells expressing human 5-HT2A receptor
Settings: read-out: 5HT2A Ki; human receptor in HEK293 EBNA cells; 1.1 nM [3H]-ketanserin
REPORTED ENDPOINT: Ki (nM)

>>> df
                                   compound  unit_tag  result
0  Cc1ccc(C(=O)N[C@H]2CC[C@H](CCN3CCC(c4cccc5c4OCO5)CC3)CC2)cn1        nM    11.5
1  CC(C)(O)CC(=O)N[C@H]1CC[C@H](CCN2CCC(c3cccc4c3OCO4)CC2)CC1        nM    26.1
2  COC1(C(=O)N[C@H]2CC[C@H](CCN3CCC(c4cccc5c4OCO5)CC3)CC2)CCCCC1        nM    11.6
3  CN1CCN(CC(=O)N[C@H]2CC[C@H](CCN3CCC(c4cccc5c4OCO5)CC3)CC2)CC1        nM      31
4  N#Cc1ccc(C(=O)N[C@H]2CC[C@H](CCN3CCC(c4cccc5c4OCO5)CC3)CC2)cc1        nM    9.02
5  CO[C@H]1CC[C@H](CC(=O)N[C@H]2CC[C@H](CCN3CCC(c4cccc5c4OCO5)CC3)CC2)CC1        nM    34.3
6  O=C(N[C@H]1CC[C@H](CCN2CCC(c3cccc4c3OCO4)CC2)CC1)C1CCOC1 (some centres unmarked)        nM    24.1
7  O=C(CC1CCOCC1)N[C@H]1CC[C@H](CCN2CCC(c3cccc4c3OCO4)CC2)CC1        nM    29.6

* * *

Target: D2 receptor (Homo sapiens (Human), UniProt P14416)
Test: Radioligand binding assay ([3H]-spiperone) on membranes of HEK293 EBNA cells expressing human D2 receptor
Conditions: human receptor in HEK293 EBNA cells; 0.7 nM [3H]-spiperone
pKi: −log10 of the molar value.
REPORTED ENDPOINT: pKi

>>> print(df.to_string())
                                   compound  result
0  O=S(=O)(N[C@H]1CC[C@H](CCN2CCC(c3cccc4c3OCO4)CC2)CC1)N1CCOCC1 [Example 79]    6.64
1  CN1CCC(C(=O)N[C@H]2CC[C@H](CCN3CCC(c4cccc5c4OCO5)CC3)CC2)CC1 [Example 61]    6.83
2  CC(C)(O)CC(=O)N[C@H]1CC[C@H](CCN2CCC(c3cccc4c3OCO4)CC2)CC1 [Example 35]    6.55
3  CC(C)(O)C(=O)N[C@H]1CC[C@H](CCN2CCC(c3cccc4c3OCO4)CC2)CC1 [Example 32]    6.39
4  O=C(N[C@H]1CC[C@H](CCN2CCC(c3cccc4c3OCO4)CC2)CC1)c1ccc(F)cc1 [Example 37]    6.63
5  O=C(N[C@H]1CC[C@H](CCN2CCC(c3cccc4c3OCO4)CC2)CC1)N1CCc2ccccc21 [Example 74]    6.64
6  O=C(N[C@H]1CC[C@H](CCN2CCC(c3cccc4c3OCO4)CC2)CC1)C1CCS(=O)(=O)C1 (some centres unmarked) [Example 52]    6.89
7  O=C(C[C@@H]1CCCO1)N[C@H]1CC[C@H](CCN2CCC(c3cccc4c3OCO4)CC2)CC1 [Example 17]    6.27

* * *

The entries below are paired with their reported Ki.
Target: 5-HT2A receptor (Homo sapiens (Human), UniProt P28223)
Test: Radioligand binding assay ([3H]-ketanserin) on membranes of HEK293 EBNA cells expressing human 5-HT2A receptor
REPORTED ENDPOINT: Ki (nM)

>>> print(df.to_string())
                                   compound  result
0  O=C(C[C@@H]1COCCO1)N[C@H]1CC[C@H](CCN2CCC(c3cccc4c3OCO4)CC2)CC1 (single isomer, unassigned)      17
1  O=C(C[C@H]1COCCO1)N[C@H]1CC[C@H](CCN2CCC(c3cccc4c3OCO4)CC2)CC1 (single isomer, unassigned)    11.9
